These data points were gathered from paper PMC6514812.

- Tested on: PC3-CXCR4 xenograft tumors
- test description: Biodistribution in mice bearing bilateral PC3-WT/PC3-CXCR4 xenograft tumors
- Assay type: in vivo, BALB/c mice
- assay conditions: 1 h p.i.

{"mol": "FCCn1cc(-c2cc(CN3CCCNCCNCCCNCC3)ccc2CNCc2ccccn2)nn1", "PC3-CXCR4 Tumor-to-Tissue Ratio Lungs": 8.0}
{"mol": "FCCn1cc(-c2cc(CNCc3ccccn3)ccc2CN2CCCNCCNCCCNCC2)nn1", "PC3-CXCR4 Tumor-to-Tissue Ratio Lungs": 3.3}
{"mol": "FCCn1cc(CCNCc2ccc(CN3CCCNCCNCCCNCC3)cc2)nn1", "PC3-CXCR4 Tumor-to-Tissue Ratio Lungs": 5.0}
{"mol": "FCCn1cc(CNCc2ccc(CN3CCCNCCNCCCNCC3)cc2)nn1", "PC3-CXCR4 Tumor-to-Tissue Ratio Lungs": 6.2}

====

- study system: CXCR4 (Homo sapiens)
- Sequence (P61073 whole entry): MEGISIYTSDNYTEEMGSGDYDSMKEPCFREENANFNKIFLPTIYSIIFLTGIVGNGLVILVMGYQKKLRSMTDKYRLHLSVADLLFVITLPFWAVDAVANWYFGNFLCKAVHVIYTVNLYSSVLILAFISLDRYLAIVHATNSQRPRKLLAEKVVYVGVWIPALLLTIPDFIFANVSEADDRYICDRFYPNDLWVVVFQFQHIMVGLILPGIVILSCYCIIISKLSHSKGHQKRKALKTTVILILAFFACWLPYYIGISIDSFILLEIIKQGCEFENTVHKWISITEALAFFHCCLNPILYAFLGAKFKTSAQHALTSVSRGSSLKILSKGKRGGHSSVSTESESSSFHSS
- test description: Saturation binding assay in PC3-CXCR4 cells
- assay conditions: saturation binding, PC3-CXCR4 cells
pKd: −log10 of the molar value.
test readout: pKd

{"mol": "FCCn1cc(-c2cc(CNCc3ccccn3)ccc2CN2CCCNCCNCCCNCC2)nn1", "test readout": "pKd", "reported measurement": 6.44}
{"mol": "FCCn1cc(CCNCc2ccc(CN3CCCNCCNCCCNCC3)cc2)nn1", "test readout": "pKd", "reported measurement": 6.50}
{"mol": "FCCn1cc(-c2cc(CN3CCCNCCNCCCNCC3)ccc2CN2CCCNCCNCCCNCC2)nn1", "test readout": "pKd", "reported measurement": 6.29}
{"mol": "FCCn1cc(CNCc2ccc(CN3CCCNCCNCCCNCC3)cc2)nn1", "test readout": "pKd", "reported measurement": 6.58}
{"mol": "FCCn1cc(-c2cc(CN3CCCNCCNCCCNCC3)ccc2CNCc2ccccn2)nn1", "test readout": "pKd", "reported measurement": 6.75}
{"mol": "Fc1cccc(CNCc2ccc(CN3CCCNCCNCCCNCC3)cc2)n1", "test readout": "pKd", "reported measurement": 8.29}

====

- test description: Biodistribution in mice bearing bilateral PC3-WT/PC3-CXCR4 xenograft tumors
- Type: in vivo, BALB/c mice
- assay conditions: male, BALB/c athymic nude, mouse, PC3-CXCR4 tumor and muscle, iv, total radioactivity, 1 h p.i.; read-out: PC3-CXCR4 Tumor-to-Tissue Ratio Muscle
Non-standard residues stand in square brackets, D forms with d. Residues, ends and D or L forms follow the SMILES beside them. Groups on a side chain read outwards from the residue. *: point of attachment. DOTA = O=C(O)CN1CCN(CC(=O)O)CCN(CC(=O)*)CCN(CC(=O)O)CC1; 2Nal = N[C@@H](Cc1ccc2ccccc2c1)C(=O)O; dNMeOrn = CN[C@H](CCCN)C(=O)O; 4Amb = NCc1ccc(C(=O)O)cc1

{"compound": "CN1C(=O)[C@@H](Cc2ccc(O)cc2)NC(=O)CNC(=O)[C@H](Cc2ccc3ccccc3c2)NC(=O)[C@H](CCCNC(=N)N)NC(=O)[C@H]1CCCNC(=O)c1ccc(CNC(=O)CN2CCN(CC(=O)O)CCN(CC(=O)O)CCN(CC(=O)O)CC2)cc1 (68Ga complex, metal not drawn) [Pentixafor, reference compound] (cyclo([dY][dNMeOrn]([4Amb-DOTA])R[2Nal]G))", "tissue to tissue ratio at 1 h": 56.1}
